Biological target: IGF-1R (human cytoplasmic domain fused with GST) (Homo sapiens)
Construct: The human cytoplasmic domain of IGF-1R was cloned by fusion with glutathione S-transferase (GST); made in house; host or cells: SF21 insect cells (baculovirus, pFastBac-GST)
Sequence (P08069 960-1367 limits assumed): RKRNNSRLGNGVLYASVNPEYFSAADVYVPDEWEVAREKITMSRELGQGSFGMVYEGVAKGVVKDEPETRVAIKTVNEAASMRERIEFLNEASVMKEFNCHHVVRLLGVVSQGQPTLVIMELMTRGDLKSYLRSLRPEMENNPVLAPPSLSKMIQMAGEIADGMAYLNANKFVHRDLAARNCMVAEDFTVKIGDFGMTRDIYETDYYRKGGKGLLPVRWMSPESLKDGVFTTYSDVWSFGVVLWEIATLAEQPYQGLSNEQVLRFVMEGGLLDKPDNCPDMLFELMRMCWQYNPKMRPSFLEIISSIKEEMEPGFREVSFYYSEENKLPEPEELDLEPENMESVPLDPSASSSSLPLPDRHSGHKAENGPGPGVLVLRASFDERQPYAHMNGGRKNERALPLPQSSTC
Test: Kinase IGF-1R test (Test A): inhibition of autophosphorylation of the enzyme, HTRF
Format: biochemical
Conditions: preincubation with enzyme 30 minutes; 120 μM ATP; read-out: Test A 30′ IC50
MEASUREMENT_KIND: IC50

// IC50 value for CC(C)(C)c1ccc(N2C(=O)N(Cc3ccnc(Nc4cncnc4)n3)C(C)(C)C2=O)cc1 : 10 to 100 nM

// IC50 value for CC(C)(C)c1ccc(N2C(=O)N(Cc3ccnc(NC(=O)NC4CCCCC4)c3)C(C)(C)C2=O)cc1 : > 100 nM

// IC50 value for CN(C)C(=O)Nc1nccc(CN2C(=O)N(c3ccc(C(C)(C)C)cc3)C(=O)C2(C)C)n1 : > 100 nM

// IC50 value for CC(C)NCC(=O)N1CC(C)(C)c2ccc(N3C(=O)N(Cc4ccnc(NC(=O)N(C)C)c4)C(C)(C)C3=O)cc21 [Example 31E] : > 100 nM
